- system_name: fatty acyl CoA: cholesterol acyl transferase (ACAT) (Rattus norvegicus)
- Construct: The supernatant, containing the microsomal fraction, served as the source of the cholesterol-esterifying enzyme; from tissue; host or cells: rat adrenals (1,000 x g supernatant containing the microsomal fraction)
- Sequence (O70536 whole entry): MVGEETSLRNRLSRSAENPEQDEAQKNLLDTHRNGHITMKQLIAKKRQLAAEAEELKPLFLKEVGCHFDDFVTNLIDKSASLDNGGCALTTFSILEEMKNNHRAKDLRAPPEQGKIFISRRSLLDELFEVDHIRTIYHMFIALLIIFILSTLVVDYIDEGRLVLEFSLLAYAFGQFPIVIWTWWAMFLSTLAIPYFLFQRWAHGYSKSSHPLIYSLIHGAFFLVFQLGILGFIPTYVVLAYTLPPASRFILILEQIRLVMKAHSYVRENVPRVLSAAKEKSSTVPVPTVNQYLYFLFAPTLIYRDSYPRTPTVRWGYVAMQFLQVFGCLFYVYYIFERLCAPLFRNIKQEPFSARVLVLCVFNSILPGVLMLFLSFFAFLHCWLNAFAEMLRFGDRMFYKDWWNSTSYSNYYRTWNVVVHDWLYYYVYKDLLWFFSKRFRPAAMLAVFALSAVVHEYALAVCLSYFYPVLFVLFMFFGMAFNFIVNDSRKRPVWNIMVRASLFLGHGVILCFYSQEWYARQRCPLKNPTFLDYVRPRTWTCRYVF
- assay_protocol: Inhibition of enzymatic esterification of cholesterol (ACAT) in rat adrenal supernatant containing the microsomal fraction
- Format: biochemical
- settings: final concentration of test compound 5.2 μg./ml., percent inhibition of the ACAT enzyme compared to control values
- Description: The compounds of the present invention were tested for their ability to inhibit the enzymatic esterification of cholesterol according to the following procedure: Rat adrenals were homogenized in 0.2M monobasic potassium phosphate buffer, pH 7.4, and centrifuged at 1,000 times gravity for 15 minutes at 5° C. […] The cholesterol ester fraction was counted in a scintillation counter. […]
Documented inhibition at 5.2 µg/mL across a set of compounds

structure_smiles	system_name	inhibition at 5.2 µg/mL
N#Cc1ccc(NC(=O)C=C(c2ccc(Cl)cc2)c2ccc(Cl)cc2)cc1	fatty acyl CoA: cholesterol acyl transferase (ACAT) (Rattus norvegicus)	96%
CCOC(=O)c1ccc(NC(=O)C=C(c2ccc(F)cc2)c2ccc(F)cc2)cc1	fatty acyl CoA: cholesterol acyl transferase (ACAT) (Rattus norvegicus)	74%
COc1ccc(C(CC(=O)Nc2ccc(Br)cc2)c2ccc(OC)cc2)cc1	fatty acyl CoA: cholesterol acyl transferase (ACAT) (Rattus norvegicus)	79%
CC(=CC(=O)Nc1ccc(C(=O)O)cc1)c1ccc(Cl)cc1	fatty acyl CoA: cholesterol acyl transferase (ACAT) (Rattus norvegicus)	71%
CCOC(=O)c1ccc(NC(=O)C=Cc2ccc(OC)cc2)cc1	fatty acyl CoA: cholesterol acyl transferase (ACAT) (Rattus norvegicus)	53%
COc1ccc(C(CC(=O)Nc2ccc(F)cc2)c2ccc(OC)cc2)cc1	fatty acyl CoA: cholesterol acyl transferase (ACAT) (Rattus norvegicus)	92%

Value source: patent US4536346A
